Origin of measurements: patent US20240139260A1

System: Bacillus strain (NRRL No. B-68054)
Assay: Antibiotic resistance, Minimum Inhibitory Concentrations (MICs) Against Medical Antibiotics
Assay type: cell-based, Bacillus subtilis
Conditions: Bacillus, NRRLB68054; read-out: NRRL No. B-68054 ug/mL (triplicate), Minimum Inhibitory Concentration
Measure: log10 of MIC (log10 of the value in µg/mL)
Please note: log10 values; quantity MIC; unit µg/mL.

- CN(C)[C@@H]1C(O)=C(C(N)=O)C(=O)[C@@]2(O)C(O)=C3C(=O)c4c(O)cccc4[C@@](C)(O)[C@H]3C[C@@H]12 [Tetracycline]: 0.78
- NC[C@H]1O[C@H](O[C@H]2[C@H](O)[C@@H](O[C@H]3O[C@H](CO)[C@@H](O)[C@H](N)[C@H]3O)[C@H](N)C[C@@H]2N)[C@H](O)[C@@H](O)[C@@H]1O [Kanamycin]: -0.12
- CC[C@H]1OC(=O)[C@H](C)[C@@H](O[C@H]2C[C@@](C)(OC)[C@@H](O)[C@H](C)O2)[C@H](C)[C@@H](O[C@@H]2O[C@H](C)C[C@H](N(C)C)[C@H]2O)[C@](C)(O)C[C@@H](C)C(=O)[C@H](C)[C@@H](O)[C@]1(C)O [Erythromycin]: -1.33
- CO[C@H]1/C=C/O[C@@]2(C)Oc3c(C)c(O)c4c(O)c(c(/C=N/N5CCN(C)CC5)c(O)c4c3C2=O)NC(=O)/C(C)=C\C=C\[C@H](C)[C@H](O)[C@@H](C)[C@@H](O)[C@@H](C)[C@H](OC(C)=O)[C@@H]1C [Rifampin]: -0.30
- CC(=O)NC[C@H]1CN(c2ccc(N3CCOCC3)c(F)c2)C(=O)O1 [Linezolid]: -0.60
- CCC[C@@H]1C[C@@H](C(=O)N[C@@H]([C@H]2O[C@H](SC)[C@H](O)[C@@H](O)[C@H]2O)[C@H](C)Cl)N(C)C1 [Clindamycin]: -0.30
- O=C(N[C@H](CO)[C@H](O)c1ccc([N+](=O)[O-])cc1)C(Cl)Cl [Chloramphenicol]: 0.18

Now for another entry.
Reported log10 of MIC for [H]/N=C(/N)N[C@H]1[C@H](O)[C@@H](O)[C@H](O[C@@H]2O[C@@H](C)[C@](O)(C=O)[C@H]2O[C@@H]2O[C@@H](CO)[C@H](O)[C@@H](O)[C@@H]2NC)[C@@H](N/C(N)=N\[H])[C@@H]1O [Streptomycin] : what is it?
0.60
